Where do the numbers come from? From ChEMBL document CHEMBL1142037.

Recorded measurements of log10 of K obs, one per entry
Assay: Rate constant for release of paracetamol was determined
Type: ADME
Assay readout: log10 of K obs (log10 of the value in s⁻¹)

- Line notation: "CC(=O)Nc1ccc(OC(=O)CNC(=O)[C@@H](N)Cc2ccccc2)cc1.O=C(O)C(F)(F)F"
  Measured value: -3.09
- Line notation: "CC(=O)Nc1ccc(OC(=O)CNC(=O)[C@@H]2CCCN2)cc1.O=C(O)C(F)(F)F"
  Measured value: -2.23
- Line notation: "CC(=O)Nc1ccc(OC(=O)CNC(=O)CN)cc1.O=C(O)C(F)(F)F"
  Measured value: -1.84
- Line notation: "CC(=O)Nc1ccc(OC(=O)CNC(=O)[C@H](C)N)cc1.O=C(O)C(F)(F)F"
  Measured value: -2.47
- Line notation: "CC(=O)Nc1ccc(OC(=O)[C@H](Cc2ccccc2)NC(=O)CN)cc1.O=C(O)C(F)(F)F"
  Measured value: -2.25
- Line notation: "CC(=O)Nc1ccc(OC(=O)[C@H](C)NC(=O)CN)cc1.O=C(O)C(F)(F)F"
  Measured value: -1.87
- Line notation: "CC(=O)Nc1ccc(OC(=O)[C@@H](NC(=O)CN)C(C)C)cc1.O=C(O)C(F)(F)F"
  Measured value: -3.24
- Line notation: "CC(=O)Nc1ccc(OC(=O)CNC(=O)[C@@H](N)C(C)C)cc1.O=C(O)C(F)(F)F"
  Measured value: -3.15
